# System: MGLL
# measurement_notes: Michaelis-Menten kinetics, hydrolysis of 4-methylcoumarin butyrate (4MC-B)
# Assay type: biochemical, human
# stated_conditions: substrate 4MC-B; 4-5 nM MGLL, 20 mM Pipes pH 7, 150 mM NaCl, 37° C.; average of 2 or 4 assays
assay_readout: Km (µM)
Give bare numbers, in µM.

Known Km results, listed for orientation:
Input line: Please look up its Km: mut-MGLL. 1-303, L169S, L176S: human MGLL 1-303 with cap-domain mutations L169S, L176S (protein) GMPEESSPRRTPQSIPYQDLPHLVNADGQYLFCRYWKPTGTPKALIFVSHGAGEHSGRYEELARMLMGLDLLVFAHDHVGHGQSEGERMVVSDFHVFVRDVLQHVDSMQKDYPGLPVFLLGHSMGGAIAILTAAERPGHFAGMVLISPLVLANPESATTFKVLAAKVLNSVLPNLSSGPIDSSVLSRNKTEVDIYNSDPLICRAGLKVCFGIQLLNAVSRVERALPKLTVPFLLLQGSADRLCDSKGAYLLMELAKSQDKTLKIYEGAYHVLHKELPEVTNSVFHEINMWVSQRTATAGTASPP
Output line: 136

Input line: Please look up its Km: mut-MGLL 9-297, L169S, L176S: truncated human MGLL 9-297 with L169S, L176S (protein, UniProt Q99685 9-297, looked up, variant L169S L176S) RTPQSIPYQDLPHLVNADGQYLFCRYWKPTGTPKALIFVSHGAGEHSGRYEELARMLMGLDLLVFAHDHVGHGQSEGERMVVSDFHVFVRDVLQHVDSMQKDYPGLPVFLLGHSMGGAIAILTAAERPGHFAGMVLISPLVLANPESATTFKVLAAKVLNSVLPNLSSGPIDSSVLSRNKTEVDIYNSDPLICRAGLKVCFGIQLLNAVSRVERALPKLTVPFLLLQGSADRLCDSKGAYLLMELAKSQDKTLKIYEGAYHVLHKELPEVTNSVFHEINMWVSQRTATA
Output line: 126

---
Input line: Please look up its Km: mut-MGLL 1-303, L171Q, L174Q: human MGLL 1-303 with cap-domain mutations L171Q, L174Q (protein, UniProt Q99685 1-303, looked up, variant L171Q L174Q) Monoglyceride lipase: MPEESSPRRTPQSIPYQDLPHLVNADGQYLFCRYWKPTGTPKALIFVSHGAGEHSGRYEELARMLMGLDLLVFAHDHVGHGQSEGERMVVSDFHVFVRDVLQHVDSMQKDYPGLPVFLLGHSMGGAIAILTAAERPGHFAGMVLISPLVLANPESATTFKVLAAKVLNLVQPNQSLGPIDSSVLSRNKTEVDIYNSDPLICRAGLKVCFGIQLLNAVSRVERALPKLTVPFLLLQGSADRLCDSKGAYLLMELAKSQDKTLKIYEGAYHVLHKELPEVTNSVFHEINMWVSQRTATAGTASPP
Output line: 89
